- assayedTarget: Neu5Ac(a2-8)Neu5Ac(a2-8)Neu5Ac
- testDetails: glycan array binding signal (z-score within array); higher = stronger binding
- details: glycan notation: IUPAC condensed, linker removed
This excerpt belongs to a sample that is enriched for the strongest signals.
This listing pairs binders with measured glycan array binding signal (z-score).
parameter: glycan array binding signal (z-score)

binder	parameter	measuredResult
rCnSL-proB (Clitocybe nebularis) (protein) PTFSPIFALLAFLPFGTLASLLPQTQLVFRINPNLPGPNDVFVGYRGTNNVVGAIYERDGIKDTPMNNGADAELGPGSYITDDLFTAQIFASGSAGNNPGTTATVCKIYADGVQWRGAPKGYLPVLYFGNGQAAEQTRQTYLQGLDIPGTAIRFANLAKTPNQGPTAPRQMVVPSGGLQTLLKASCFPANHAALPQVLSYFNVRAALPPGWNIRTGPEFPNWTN	glycan array binding signal (z-score)	-0.203
EULS2 M4 (Oryza sativa) (protein) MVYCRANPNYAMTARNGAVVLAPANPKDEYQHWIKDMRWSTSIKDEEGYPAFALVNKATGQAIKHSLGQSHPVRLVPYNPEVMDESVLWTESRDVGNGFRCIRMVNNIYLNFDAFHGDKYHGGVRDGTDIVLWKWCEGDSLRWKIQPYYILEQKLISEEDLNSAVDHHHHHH	glycan array binding signal (z-score)	-0.325
XTP3-B-MRH2 (Homo sapiens), Q96DZ1 (protein) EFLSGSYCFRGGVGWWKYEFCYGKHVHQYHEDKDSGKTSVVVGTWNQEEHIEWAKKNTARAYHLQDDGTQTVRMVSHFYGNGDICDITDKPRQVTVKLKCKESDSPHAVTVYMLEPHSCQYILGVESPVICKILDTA	glycan array binding signal (z-score)	0.237
CAA (Caragana arborescens) (protein) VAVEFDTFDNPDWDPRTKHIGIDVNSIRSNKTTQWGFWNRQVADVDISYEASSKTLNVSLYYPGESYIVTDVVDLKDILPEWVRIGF	glycan array binding signal (z-score)	-0.249
Gal 1 (Canis lupus) (protein) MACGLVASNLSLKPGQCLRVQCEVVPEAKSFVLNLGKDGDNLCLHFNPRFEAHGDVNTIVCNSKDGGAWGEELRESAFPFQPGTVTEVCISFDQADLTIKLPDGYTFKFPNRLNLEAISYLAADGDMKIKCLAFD	glycan array binding signal (z-score)	-0.324
Gal 8 (Homo sapiens) (protein) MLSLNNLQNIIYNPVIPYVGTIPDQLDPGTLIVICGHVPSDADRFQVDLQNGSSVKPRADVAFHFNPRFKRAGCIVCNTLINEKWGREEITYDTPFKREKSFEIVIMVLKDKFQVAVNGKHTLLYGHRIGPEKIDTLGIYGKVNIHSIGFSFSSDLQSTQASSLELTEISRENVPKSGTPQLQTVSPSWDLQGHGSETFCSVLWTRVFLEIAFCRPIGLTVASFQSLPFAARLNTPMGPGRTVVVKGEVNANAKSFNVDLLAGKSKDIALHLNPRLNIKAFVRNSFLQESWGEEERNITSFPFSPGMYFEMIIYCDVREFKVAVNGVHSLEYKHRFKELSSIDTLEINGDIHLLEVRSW	glycan array binding signal (z-score)	-0.396

The values you see were collected from the supplement of paper PMC8728848.
